# System: HCT-116
# MEASUREMENT PROTOCOL: cells
# Assay type: functional, cell-based, Homo sapiens
# CONDITION DETAILS: Homo sapiens, HCT-116
# Description: SANGER: Inhibition of human HCT-116 cell growth in a cell viability assay.
Can you tell me IC50 for the items I'm about to list?

According to the records, this compound Cc1ccc(Nc2nccc(N(C)c3ccc4c(C)n(C)nc4c3)n2)cc1S(N)(=O)=O displays IC50 of > 8 µM

According to the records, this compound C=CCc1cccc(/C=N/NC(=O)CN2CCN(Cc3ccccc3)CC2)c1O displays IC50 of > 2.56 µM

According to the records, this compound O=C(NOCC1CC1)c1ccc(F)c(F)c1Nc1ccc(I)cc1Cl displays IC50 of 6.81 µM

According to the records, this compound COC(=O)CNC(=O)C(=O)OC displays IC50 of 658 µM

According to the records, this compound O=c1cc(-c2cccc3c2Sc2ccccc2S3)oc(N2CCOCC2)c1 displays IC50 of > 10 µM

According to the records, this compound CN(C)C/C=C/C(=O)Nc1cc2c(Nc3ccc(F)c(Cl)c3)ncnc2cc1O[C@H]1CCOC1 displays IC50 of > 0.5 µM

---

# Tested on: NCI-H2052;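 note: growth inhibition of NCI-H2052 cells, read out with a cell viability assay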
# MEASUREMENT PROTOCOL: cells
# Assay type: functional, cell-based, Homo sapiens
# CONDITION DETAILS: Homo sapiens, NCI-H2052
# Description: SANGER: Inhibition of human NCI-H2052 cell growth in a cell viability assay.
Can you tell me IC50 for the items I'm about to list?

According to the records, this compound CN(Cc1cnc2nc(N)nc(N)c2n1)c1ccc(C(=O)N[C@@H](CCC(=O)O)C(=O)O)cc1 [METHOTREXATE] displays IC50 of > 0.2 µM

According to the records, this compound O=C1N=C(NCc2cccs2)S/C1=C\c1ccc2ncccc2c1 displays IC50 of > 5 µM

According to the records, this compound COc1ccc(C2=N[C@@H](c3ccc(Cl)cc3)[C@@H](c3ccc(Cl)cc3)N2C(=O)N2CCNC(=O)C2)c(OC(C)C)c1 displays IC50 of > 8 µM

According to the records, this compound Cn1cc(C2=C(c3ccc(Cl)cc3Cl)C(=O)NC2=O)c2ccccc21 displays IC50 of > 10 µM

According to the records, this compound C=CCc1cccc(/C=N/NC(=O)CN2CCN(Cc3ccccc3)CC2)c1O displays IC50 of > 2.56 µM

According to the records, this compound Cn1cncc1[C@@](N)(c1ccc(Cl)cc1)c1ccc2c(c1)c(-c1cccc(Cl)c1)cc(=O)n2C displays IC50 of > 16 µM

According to the records, this compound CCC1=C[C@@H]2CN(C1)Cc1c([nH]c3ccccc13)[C@@](C(=O)OC)(c1cc3c(cc1OC)N(C)[C@H]1[C@@](O)(C(=O)OC)[C@H](OC(C)=O)[C@]4(CC)C=CCN5CC[C@]31[C@@H]54)C2 displays IC50 of 0.061 µM

According to the records, this compound O=C(NOCC1CC1)c1ccc(F)c(F)c1Nc1ccc(I)cc1Cl displays IC50 of > 10 µM

According to the records, this compound CCOc1nc(NC(=O)Cc2cc(OC)ccc2OC)cc(N)c1C#N displays IC50 of > 10 µM

According to the records, this compound CN(c1ncccc1CNc1nc(Nc2ccc3c(c2)CC(=O)N3)ncc1C(F)(F)F)S(C)(=O)=O displays IC50 of > 2.56 µM

According to the records, this compound Nc1ccn([C@@H]2O[C@H](CO)[C@@H](O)[C@@H]2O)c(=O)n1 displays IC50 of > 2 µM

According to the records, this compound COc1cc(F)c(F)c(Nc2ccc(I)cc2F)c1NS(=O)(=O)C1(CC(O)CO)CC1 (stereo not drawn) displays IC50 of > 5 µM

According to the records, this compound CC(=O)O[C@@H]1[C@@H](OC(C)=O)[C@@H](O)[C@H](Oc2c(-c3ccc(O)cc3)oc3cc(O)cc(O)c3c2=O)O[C@H]1C displays IC50 of > 10 µM
